# system_under_test: T1, human insulin receptor (human, UniProt P06213 28-1382)
# T1 construct: whole, on cells; Endogenous receptor on IM-9 cells; also called IR
# assay_summary: competition with biotinylated RHI on IM-9 cells, flow cytometry, 4 C
endpoint: IC50 (nM)
Please state the figure in nM; there is no need to write the unit.

Problem: Please report the recorded IC50 for insulin-Fc fusion protein of SEQ ID NO: 106 (Fc fusion, homodimer) FVNQHLCGSDLVEALYLVCGERGFFYTDPTGGGPRRGIVEQCCHSICSLYQLENYCNGGGGSGGGGGEGPKCPVPEIPGAPSVFIFPPKPKDTLSISRTPEVTCLVVDLGPDDSNVQITWFVDNTEMHTAKTRPREEQFNSTYRVVSVLPILHQDWLKGKEFKCKVNSKSLPSAMERTISKAKGQPHEPQVYVLPPTQEELSENKVSVTCLIKGFHPPDIAVEWEITGQPEPENNYQTTPPQLDSDGTYFLYSRLSVDRSHWQRGNTYTCSVSHEALHSHHTQKSLTQSPG .
Result: 22
